Experimental Target: Pfs48/45 D1-2 (Plasmodium falciparum 3D7, UniProt Q8I6T1)
Sequence (Q8I6T1 28-289): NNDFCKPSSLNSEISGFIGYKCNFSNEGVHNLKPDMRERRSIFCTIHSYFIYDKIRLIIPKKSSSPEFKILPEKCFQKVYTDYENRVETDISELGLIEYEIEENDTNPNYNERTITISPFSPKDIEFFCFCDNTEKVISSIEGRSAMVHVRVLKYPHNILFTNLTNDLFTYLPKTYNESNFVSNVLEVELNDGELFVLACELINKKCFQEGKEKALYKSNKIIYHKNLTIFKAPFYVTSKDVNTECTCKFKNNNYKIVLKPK
Experimental Protocol: ELISA
Condition Label: both partners purified
Reported Metric: binding result

Binder	Value Measured
RUPA-130 (antibody, V domains shown, source: recombinant human IgG1, 293T (Protein A purified) or GenScript) VH: EVQLVESGGGLVKPGGSLRLSCEASGFTFRNAWMSWVRQAPGKGLEWVGRIKSYIDGGTADYAAPVKGRFSISRDDSKNTLFVQMNSLKTEDTAVYYCTTDSWAGEVGNYYFDNWGQGTLVTVSS VL: QSALTQPASVSGSPGQSITISCTGTSSDVGSYNFVSWYQQHPGKAPKLMIYQVTWRPSGVSNRFSGSKSGNTASLTISGLQAEDEADYYCCSYSKSSTYVFGTGTKVSVL	binds
RUPA-122 (antibody, V domains shown, human IgG1; source: recombinant human IgG1, 293T (Protein A purified) or GenScript) VH: QITLKESGPTLVKPTQTLMLTCSVSGFSLSNNGVAVGWVRQPPGKALEWLALIYWNDDSFYRPSLKSRLTINKDTSKNQVVLTMTNVAPVDTATYFCARTMKKITMIRGVPYEGGVQGFDPWGPGILVTVSS VL: DIQMTQSPSSLSASVGDRVTITCRASQGIRDDLAWYQQKPGKAPERLIYAASSLQSGVPSRFSGSGYGTEFTLTISSLQPEDFATYYCQQYSGYFTFGGGTKVEIN	binds
